target: Induced myeloid leukemia cell differentiation protein Mcl-1 (Homo sapiens, UniProt Q07820); assay: Inhibition of FITC-labeled Bak BH3 peptide binding to GST-tagged MCL1 (171 to 327 residues) (unknown origin) expressed in Escherichia coli BL21 (DE3) incubated for 30 mins fluorescence polarization-based competitive binding assay
Sequence (Q07820 whole entry, the tested form may be a part): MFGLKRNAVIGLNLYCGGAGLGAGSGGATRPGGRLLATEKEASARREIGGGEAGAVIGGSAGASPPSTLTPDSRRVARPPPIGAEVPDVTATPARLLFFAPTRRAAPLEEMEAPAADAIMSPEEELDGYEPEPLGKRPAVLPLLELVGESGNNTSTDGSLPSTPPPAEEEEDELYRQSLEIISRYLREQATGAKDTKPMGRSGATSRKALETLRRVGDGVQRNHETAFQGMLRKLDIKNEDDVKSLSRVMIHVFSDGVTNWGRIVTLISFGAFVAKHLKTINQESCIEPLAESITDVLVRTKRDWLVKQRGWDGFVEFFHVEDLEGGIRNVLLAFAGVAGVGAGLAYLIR
Note to self: Ki under 0.4 µM means MET, ties and anything higher get NOT MET.

smilesNotation | category
CCc1c(S(=O)(=O)c2ccc(C)cc2)c(C)c(C(=O)O)n1CCCOc1cc(C)c(Cl)c(C)c1 | NOT MET
Cc1cc(OCCCn2c(C)c(S(=O)(=O)c3cccc(Br)c3)c(C)c2C(=O)O)cc(C)c1Cl | MET
Cc1ccc(CNc2cc(C(=O)O)n(CCCOc3cc(C)c(Cl)c(C)c3)c2)cc1 | NOT MET
Cc1ccc(Cc2cc(C(=O)O)n(CCCOc3cc(C)c(Cl)c(C)c3)c2)cc1 | NOT MET
Cc1cc(OCCCn2c(C)c(S(=O)(=O)c3ccc([N+](=O)[O-])cc3)c(C)c2C(=O)O)cc(C)c1Cl | NOT MET
Cc1cc(C)cc(S(=O)(=O)c2c(C)c(C(=O)O)n(CCCOc3cc(C)c(Cl)c(C)c3)c2C)c1 | NOT MET
Cc1ccc(S(=O)(=O)Nc2cc(C(=O)O)n(CCCOc3cc(C)c(Cl)c(C)c3)c2)cc1 | NOT MET
Cc1cc(OCCCn2c(C)c(S(=O)(=O)c3cccs3)c(C)c2C(=O)O)cc(C)c1Cl | MET
Cc1ccc(S(=O)(=O)c2c(C)c(C(=O)O)n(CCCOc3cc(C)c(Cl)c(C)c3)c2CC(C)C)cc1 | NOT MET

* * *

experiment: Stability in human liver microsomes assessed as parent compound remaining preincubated for 5 mins followed by NADPH addition and measured after 30 mins by LC-MS/MS analysis; format: ADME, Microsome; details: time 35 min, read-out: Stabilty

smilesNotation | remaining at 0.5 h (%)
CC(=O)c1ccc(S(=O)(=O)c2c(C)c(C(=O)O)n(CCCOc3cc(C)c(Cl)c(C)c3)c2C)cc1 | 64

* * *

test: Stability of the compound in simulated gastric fluid assessed as parent compound remaining measured after 6 hrs; format: ADME; settings: read-out: Stabilty
endpointName: remaining at 6 h (%)

smilesNotation | unitsText | testResult
CC(=O)c1ccc(S(=O)(=O)c2c(C)c(C(=O)O)n(CCCOc3cc(C)c(Cl)c(C)c3)c2C)cc1 | % | 84.5

* * *

molecular target: Induced myeloid leukemia cell differentiation protein Mcl-1 (Homo sapiens); test: Inhibition of FITC-labeled Bak BH3 peptide binding to GST-tagged MCL1 (171 to 327 residues) (unknown origin) expressed in Escherichia coli BL21 (DE3) incubated for 30 mins fluorescence polarization-based competitive binding assay
pKi: −log10 of the molar value.
endpointName: pKi

smilesNotation | experimentalSystem | testResult
CCOc1ccc(S(=O)(=O)c2c(C)c(C(=O)O)n(CCCOc3cc(C)c(Cl)c(C)c3)c2C)cc1 | Induced myeloid leukemia cell differentiation protein Mcl-1 (Homo sapiens) | 6.85
Cc1cc(OCCCn2c(C)c(S(=O)(=O)c3ccc(O)cc3)c(C)c2C(=O)O)cc(C)c1Cl | Induced myeloid leukemia cell differentiation protein Mcl-1 (Homo sapiens) | 7.74
CC(=O)c1cccc(S(=O)(=O)c2c(C)c(C(=O)O)n(CCCOc3cc(C)c(Cl)c(C)c3)c2C)c1 | Induced myeloid leukemia cell differentiation protein Mcl-1 (Homo sapiens) | 6.26
CC(=O)c1ccc(S(=O)(=O)c2c(C)c(C(=O)O)n(CCCOc3cc(C)c(Cl)c(C)c3)c2C)cc1 | Induced myeloid leukemia cell differentiation protein Mcl-1 (Homo sapiens) | 7.70
Cc1cc(OCCCn2c(C)c(S(=O)(=O)c3ccc(Oc4ccccc4)cc3)c(C)c2C(=O)O)cc(C)c1Cl | Induced myeloid leukemia cell differentiation protein Mcl-1 (Homo sapiens) | 6.70
Cc1ccc(Sc2c(C)c(C(=O)O)n(CCCOc3cc(C)c(Cl)c(C)c3)c2C)cc1 | Induced myeloid leukemia cell differentiation protein Mcl-1 (Homo sapiens) | 6.17
Cc1cc(OCCCn2c(C)c(S(=O)(=O)c3ccccc3O)c(C)c2C(=O)O)cc(C)c1Cl | Induced myeloid leukemia cell differentiation protein Mcl-1 (Homo sapiens) | 6.82
CCc1ccc(S(=O)(=O)c2c(C)c(C(=O)O)n(CCCOc3cc(C)c(Cl)c(C)c3)c2C)cc1 | Induced myeloid leukemia cell differentiation protein Mcl-1 (Homo sapiens) | 7.15
